// provenance: patent US10780092B2

The reader will find reported pEC50 values listed item by item below.
# TARGET_UNDER_TEST: sGC α1/β1 heterodimer (Homo sapiens (Human), UniProt Q02108+Q02153)
# Sequence (Q02108 whole entry): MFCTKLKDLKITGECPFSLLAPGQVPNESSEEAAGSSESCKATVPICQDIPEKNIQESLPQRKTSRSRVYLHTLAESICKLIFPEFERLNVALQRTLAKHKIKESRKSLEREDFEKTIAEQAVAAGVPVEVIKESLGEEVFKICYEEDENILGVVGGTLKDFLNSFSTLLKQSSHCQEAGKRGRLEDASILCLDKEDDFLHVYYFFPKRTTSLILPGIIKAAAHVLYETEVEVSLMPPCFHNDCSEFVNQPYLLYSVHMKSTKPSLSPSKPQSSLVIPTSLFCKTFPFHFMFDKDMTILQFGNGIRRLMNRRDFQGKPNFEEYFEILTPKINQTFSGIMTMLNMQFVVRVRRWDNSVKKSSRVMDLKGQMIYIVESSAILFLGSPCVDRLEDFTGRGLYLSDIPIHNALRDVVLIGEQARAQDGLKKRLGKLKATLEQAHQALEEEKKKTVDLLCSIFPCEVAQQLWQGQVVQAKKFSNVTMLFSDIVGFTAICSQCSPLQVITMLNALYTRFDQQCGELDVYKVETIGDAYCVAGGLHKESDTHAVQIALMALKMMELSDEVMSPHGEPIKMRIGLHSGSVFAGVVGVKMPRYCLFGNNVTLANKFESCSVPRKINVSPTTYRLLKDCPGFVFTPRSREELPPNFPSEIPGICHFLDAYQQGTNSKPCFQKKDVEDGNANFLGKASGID
# Sequence (Q02153 whole entry): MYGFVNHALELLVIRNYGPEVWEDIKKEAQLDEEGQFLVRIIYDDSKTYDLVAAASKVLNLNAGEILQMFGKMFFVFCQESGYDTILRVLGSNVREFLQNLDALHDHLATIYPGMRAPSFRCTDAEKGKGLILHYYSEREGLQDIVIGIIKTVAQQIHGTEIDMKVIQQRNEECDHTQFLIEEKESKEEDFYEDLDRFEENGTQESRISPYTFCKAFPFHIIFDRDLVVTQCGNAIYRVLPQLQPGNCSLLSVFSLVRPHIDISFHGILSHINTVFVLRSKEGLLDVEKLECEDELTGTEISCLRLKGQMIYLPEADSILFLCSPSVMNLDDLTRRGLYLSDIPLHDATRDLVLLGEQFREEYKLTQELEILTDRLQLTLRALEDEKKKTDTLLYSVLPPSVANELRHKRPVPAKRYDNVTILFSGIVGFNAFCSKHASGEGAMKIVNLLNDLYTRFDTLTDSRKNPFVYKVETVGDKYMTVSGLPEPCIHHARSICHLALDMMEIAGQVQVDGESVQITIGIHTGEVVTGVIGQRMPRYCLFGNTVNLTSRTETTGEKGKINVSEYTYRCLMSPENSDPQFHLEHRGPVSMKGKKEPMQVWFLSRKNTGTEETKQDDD
# MEASUREMENT_NOTES: Cell-based sGC functional assay (CASA assay), cGMP by HTRF
# CONDITION_INFO: inflection point of cGMP production, 4P fit; CHO-K1/sGC cells; read-out: IP
# Protocol: Cell-Based sGC Functional Assay (Cyclic GMP Assay for sGC Activator: CASA Assay) Soluble guanylate cyclase (sGC) is a heme-containing enzyme that converts GTP to secondary messenger cGMP. […] A CHO-K1 cell line stably expressing the sGC α1/β1 heterodimer was generated using a standard transfection protocol. […] The level of intracellular cGMP was determined using an HTRF-based assay kit (CisBio, 62GM2PEC), which detects the displacement of a fluorescence labeled cGMP from its specific antibody. […]
pEC50: −log10 of the molar value.
READOUT_KIND: pEC50

COMPOUND: CC1(c2cc(O)c(Cl)c(F)c2)C(=O)Nc2nc(-c3cn4ccnc4c(Cc4cc(F)ccc4F)n3)nc(N)c21 (stereo not shown)
TARGET_UNDER_TEST: sGC α1/β1 heterodimer (Homo sapiens (Human), UniProt Q02108+Q02153)
ENDPOINT_RESULT: 7.03

COMPOUND: CC1(c2cc(O)c(C#N)c(Cl)c2)C(=O)Nc2nc(-c3cn4ccnc4c(Cc4ccccc4F)n3)nc(N)c21 (stereo not shown)
TARGET_UNDER_TEST: sGC α1/β1 heterodimer (Homo sapiens (Human), UniProt Q02108+Q02153)
ENDPOINT_RESULT: 5.53

COMPOUND: Cc1cnc(C2(C)C(=O)Nc3nc(-c4cn5ccnc5c(Cc5cccc(F)c5)n4)nc(N)c32)cc1O (stereo not shown)
TARGET_UNDER_TEST: sGC α1/β1 heterodimer (Homo sapiens (Human), UniProt Q02108+Q02153)
ENDPOINT_RESULT: 5.75

COMPOUND: CC1(c2cc(O)c(Cl)cn2)C(=O)Nc2nc(-c3cn4ccnc4c(Cc4c(F)cccc4F)n3)nc(N)c21 (stereo not shown)
TARGET_UNDER_TEST: sGC α1/β1 heterodimer (Homo sapiens (Human), UniProt Q02108+Q02153)
ENDPOINT_RESULT: 5.48
